assayed_system: BRD4-BD1 (Homo sapiens (Human))
measurement_description: AlphaLisa bromodomain binding assay, BRD4-BD1
assay_context: Table 6; read-out: BRD4(1) IC50
For each record, check the reported IC50: if it is below 2 µM write class 1, else write class 0.

Below are worked cases with known answers.
CC1CNCCC1Nc1nc(Nc2ccc3c(c2)N(S(=O)(=O)C(C)(C)C)CC3)c2ccsc2n1 (centres unmarked): class 0
Cc1ccc(-n2ccc3cnc(Nc4ccc(N5CCN(C)CC5)cc4)nc32)cc1NS(=O)(=O)C1CC1: class 0
CC(C)(C)S(=O)(=O)Nc1cccc(-c2csc3cnc(Nc4ccc(N5CCNCC5)c(F)c4)nc23)c1: class 1
COc1cc(Nc2nc(Nc3ccc(N4CCN(C)CC4)cc3)nc3ccccc23)ccc1Cl: class 0
CN1CCN(c2ccc(Nc3ncc4ccn(-c5cccc(NS(=O)(=O)c6ccccc6)c5)c4n3)cc2)CC1 [drawing 287]: class 0
CC(C)(C)S(=O)(=O)N1CCc2ccc(Nc3nc(NC4CCNCC4)nc4c3COC4)cc21: class 1
CC(C)(C)S(=O)(=O)Nc1cc(-n2ccc3cnc(Nc4ccc(N5CCNC(=O)C5)c(F)c4)nc32)ccc1F: class 1

Consider now this further compound.
Identify whether the compound CN(C)C1CCN(c2ccc(Nc3ncc4ccn(-c5cccc(NS(=O)(=O)C(C)(C)C)c5)c4n3)cc2F)CC1 [drawing 385] records IC50 below 2 µM.
class 1

====

assayed_system: BRD4-BD1 (Homo sapiens (Human))
measurement_description: AlphaLisa bromodomain binding assay, BRD4-BD1
assay_context: Table 6; read-out: BRD4(1) IC50
measure: pIC50
Numbers only, as −log10 of the molar value.

Worked cases, answers included:
CC(C)(C)S(=O)(=O)Nc1cccc(-n2ccc3cnc(Nc4ccc(C(=O)NC5CCNCC5)cc4)nc32)c1: 6.19
CNCCOc1ccc(Nc2ncc3ccn(-c4cccc(NS(=O)(=O)C(C)(C)C)c4)c3n2)cc1F [drawing 460]: 5.64
CN(C)C1CCN(c2ccc(Nc3ncc4scc(-c5cccc(NS(=O)(=O)C(C)(C)C)c5)c4n3)cc2)CC1: 6.43

Kindly consider the entry below.
Under BRD4-BD1 (Homo sapiens (Human)): pIC50 value of Cc1cnc(Nc2ccc(N3CCN(C)CC3)cc2)nc1Nc1cccc(NS(=O)(=O)C(C)(C)C)c1 [drawing 375] ?
6.50

====

assayed_system: JAK2 (Homo sapiens (Human), UniProt O60674)
Sequence (O60674 whole entry): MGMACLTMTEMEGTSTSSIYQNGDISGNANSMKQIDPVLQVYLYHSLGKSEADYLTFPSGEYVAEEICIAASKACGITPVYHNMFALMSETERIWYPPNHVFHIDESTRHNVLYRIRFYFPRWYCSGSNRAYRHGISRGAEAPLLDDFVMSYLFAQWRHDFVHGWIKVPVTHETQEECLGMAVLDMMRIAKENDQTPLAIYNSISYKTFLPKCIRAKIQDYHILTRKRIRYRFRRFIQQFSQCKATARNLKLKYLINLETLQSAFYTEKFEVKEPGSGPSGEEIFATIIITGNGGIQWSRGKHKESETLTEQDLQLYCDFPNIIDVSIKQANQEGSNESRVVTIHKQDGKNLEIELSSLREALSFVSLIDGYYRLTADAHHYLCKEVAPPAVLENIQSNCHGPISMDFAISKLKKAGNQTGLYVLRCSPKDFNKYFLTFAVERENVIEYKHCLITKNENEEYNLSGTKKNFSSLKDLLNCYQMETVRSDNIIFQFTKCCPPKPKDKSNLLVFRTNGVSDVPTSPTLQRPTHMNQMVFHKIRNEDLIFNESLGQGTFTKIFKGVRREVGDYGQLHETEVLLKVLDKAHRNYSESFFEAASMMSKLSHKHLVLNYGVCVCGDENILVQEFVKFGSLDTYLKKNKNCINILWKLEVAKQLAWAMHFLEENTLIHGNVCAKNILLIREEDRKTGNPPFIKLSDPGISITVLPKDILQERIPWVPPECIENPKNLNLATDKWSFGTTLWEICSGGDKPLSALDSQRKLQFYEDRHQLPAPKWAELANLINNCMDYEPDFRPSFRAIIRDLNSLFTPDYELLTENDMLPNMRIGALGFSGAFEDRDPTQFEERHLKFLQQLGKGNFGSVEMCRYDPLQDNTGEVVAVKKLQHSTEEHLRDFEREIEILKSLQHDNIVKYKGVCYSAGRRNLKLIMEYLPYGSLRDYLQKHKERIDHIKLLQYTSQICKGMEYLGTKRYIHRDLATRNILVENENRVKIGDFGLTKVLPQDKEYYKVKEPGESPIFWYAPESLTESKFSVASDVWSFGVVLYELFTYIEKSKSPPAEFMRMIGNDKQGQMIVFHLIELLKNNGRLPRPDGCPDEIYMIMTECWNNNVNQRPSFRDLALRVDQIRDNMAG
measurement_description: HTRF kinase assay, JAK2
Type: biochemical
assay_context: Table 6
measure: pIC50
Numbers only, as −log10 of the molar value.

Worked cases, answers included:
CN1CCN(c2ccc(Nc3nccc(Nc4cccc5c4CC(=O)N5)n3)cc2)CC1: 6.41
CN1CCN(C(=O)Cc2ccc(Nc3ncc4ccn(-c5cccc(NS(=O)(=O)C(C)(C)C)c5)c4n3)cc2)CC1: 6.75
CN1CCN(C(=O)Cc2ccc(Nc3ncc4ccn(-c5cccc(NS(=O)(=O)C6CC6)c5)c4n3)cc2)CC1: 6.74
CC(C)(C)S(=O)(=O)Nc1cccc(Nc2nc(NC3CCNCC3)nc3sccc23)c1 [drawing 267]: 5.00
CN(C)C1CCN(c2ccc(Nc3ncc4ccn(-c5cccc(NS(=O)(=O)C(C)(C)C)c5)c4n3)cc2F)CC1 [drawing 385]: 8.52
CC(C)(C)S(=O)(=O)Nc1cccc(-n2ccc3cnc(Nc4ccc(N5CCOCC5)cc4)nc32)c1: 7.61
COc1cccc(Nc2nccc(-c3cccc4c3CC(=O)N4)n2)c1: 5.65
COc1cc(Nc2ncc3ccn(-c4ccc(F)c(NS(=O)(=O)C(C)(C)C)c4)c3n2)ccc1N1CCN(C)CC1: 7.05

For each listed entry, give its pIC50.
1. O=S(=O)(Nc1cccc(-n2ccc3cnc(Nc4ccc(N5CCNCC5)cc4)nc32)c1)C1CC1 [drawing 296]
2. CC1CNCC(C)C1Nc1nc(Nc2cccc(NS(=O)(=O)C(C)(C)C)c2)c2ccsc2n1 (stereo not drawn)
3. CC(C)(C)S(=O)(=O)Nc1cccc(Nc2nc(NC3CCNCC3)nc3sccc23)c1 [drawing 406]

[8.70, 5.00, 5.00]

====

JAK1 (Homo sapiens (Human)): recorded IC50 for assorted compounds
Sequence (P23458 whole entry): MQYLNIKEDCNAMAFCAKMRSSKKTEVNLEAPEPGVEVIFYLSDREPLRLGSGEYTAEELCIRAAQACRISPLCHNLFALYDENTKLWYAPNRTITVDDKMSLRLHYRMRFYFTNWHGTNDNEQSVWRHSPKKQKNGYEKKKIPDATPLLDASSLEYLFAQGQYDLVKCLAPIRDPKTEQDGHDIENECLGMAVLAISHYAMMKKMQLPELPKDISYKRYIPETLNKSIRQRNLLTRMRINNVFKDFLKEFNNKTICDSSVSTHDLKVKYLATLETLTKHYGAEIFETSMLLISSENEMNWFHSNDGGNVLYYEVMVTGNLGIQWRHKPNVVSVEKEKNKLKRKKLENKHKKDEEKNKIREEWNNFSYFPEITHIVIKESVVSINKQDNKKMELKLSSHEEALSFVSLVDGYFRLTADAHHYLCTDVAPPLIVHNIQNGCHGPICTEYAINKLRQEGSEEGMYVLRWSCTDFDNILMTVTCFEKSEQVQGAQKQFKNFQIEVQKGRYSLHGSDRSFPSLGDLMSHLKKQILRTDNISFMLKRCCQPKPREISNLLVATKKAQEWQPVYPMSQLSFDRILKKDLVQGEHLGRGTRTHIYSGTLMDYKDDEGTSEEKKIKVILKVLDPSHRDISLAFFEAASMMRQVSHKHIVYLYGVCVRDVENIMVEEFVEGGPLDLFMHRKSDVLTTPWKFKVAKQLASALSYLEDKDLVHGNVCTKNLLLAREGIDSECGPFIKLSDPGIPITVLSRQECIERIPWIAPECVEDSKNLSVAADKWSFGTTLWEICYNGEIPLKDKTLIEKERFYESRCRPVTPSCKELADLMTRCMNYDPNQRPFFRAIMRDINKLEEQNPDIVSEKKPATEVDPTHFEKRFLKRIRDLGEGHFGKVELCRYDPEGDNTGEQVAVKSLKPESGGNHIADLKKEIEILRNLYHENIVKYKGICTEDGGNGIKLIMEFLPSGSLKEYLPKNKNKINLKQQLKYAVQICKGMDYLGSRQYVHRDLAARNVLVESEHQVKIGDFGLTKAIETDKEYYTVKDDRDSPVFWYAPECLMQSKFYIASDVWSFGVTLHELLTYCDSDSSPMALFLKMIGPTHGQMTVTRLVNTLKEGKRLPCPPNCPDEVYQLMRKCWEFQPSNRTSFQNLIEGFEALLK

CNC1CCN(c2ccc(Nc3ncc4ccn(-c5ccc(F)c(NS(=O)(=O)C(C)(C)C)c5)c4n3)cc2F)CC1 [drawing 456]: 1500 nM
CN1CCN(c2ccc(Nc3ncc4ccn(-c5ccc(F)c(NS(=O)(=O)C(C)(C)C)c5)c4n3)cc2)CC1 [drawing 295]: 972 nM

For each listed entry, give its IC50.
1. CNCCNC(=O)Cc1ccc(Nc2ncc3ccn(-c4cccc(NS(=O)(=O)C(C)(C)C)c4)c3n2)cc1
2. CN1CCN(c2ccc(Nc3ncc4ccn(-c5cccc(NS(=O)(=O)C(C)(C)C)c5)c4n3)cc2)CC1 [drawing 260]

["178 nM", "243 nM"]

====

For each record, write down the corresponding IC50.
assayed_system: BRD2-BD1 (Homo sapiens (Human))
Sequence (P25440 74-180): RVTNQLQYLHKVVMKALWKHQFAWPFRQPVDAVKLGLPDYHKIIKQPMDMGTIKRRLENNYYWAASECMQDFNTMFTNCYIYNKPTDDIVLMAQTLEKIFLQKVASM
measurement_description: AlphaLisa bromodomain binding assay, BRD2-BD1
assay_context: Table 6; read-out: BRD2(1) IC50
One number for each entry, in nM.

COc1cc(Nc2nc(Nc3ccc(N4CCN(C)CC4)cc3)nc3ccccc23)ccc1Cl: 790
CN1CCN(c2ccc(Nc3ncc4ccn(-c5cccc(NS(=O)(=O)C6CC6)c5)c4n3)cc2)CC1 [drawing 297]: 6210

For each listed entry, give its IC50.
1. CN1CCN(c2ccc(Nc3ncc4ccn(-c5cccc(NS(=O)(=O)C(C)(C)C)c5)c4n3)cc2F)CC1
2. CNC1CCN(c2ccc(Nc3ncc4ccn(-c5ccc(F)c(NS(=O)(=O)C(C)(C)C)c5)c4n3)cc2F)CC1 [drawing 456]

[2860, 360]

For each listed entry, give its IC50.
1. CN1CCN(c2ccc(Nc3ncc4ccn(-c5cccc(NS(=O)(=O)C6CC6)c5)c4n3)cc2)CC1 [drawing 278]
2. CN1CCN(c2ccc(Nc3ncc4ccn(-c5cccc(NS(=O)(=O)C(C)(C)C)c5)c4n3)cc2C#N)CC1
3. Cc1cnc(Nc2ccc(N3CCN(C)CC3)cc2)nc1Nc1cccc(NS(=O)(=O)C(C)(C)C)c1 [drawing 245]
4. Cc1cnc(Nc2ccc(N3CCN(C)CC3)cc2)nc1Nc1cccc(NS(=O)(=O)C(C)(C)C)c1 [drawing 271]
5. CNC1CCN(c2ccc(Nc3ncc4ccn(-c5ccc(F)c(NS(=O)(=O)C(C)(C)C)c5)c4n3)cc2F)CC1 [drawing 457]
6. Cc1cnc(Nc2ccc(N3CCN(C)CC3)c(F)c2)nc1Nc1ccc2c(c1)N(S(=O)(=O)C(C)(C)C)CC2 [drawing 246]
7. CC(C)(C)S(=O)(=O)Nc1cc(-n2ccc3cnc(Nc4cc(F)c5c(c4)CC4CNCCN54)nc32)ccc1F (stereo not shown) [drawing 443]

1. 1900
2. 1150
3. 448
4. 448
5. 420
6. 254
7. 235

For each listed entry, give its IC50.
1. COc1cc(Nc2ncc3ccn(-c4cccc(NS(=O)(=O)C(C)(C)C)c4)c3n2)ccc1N1CCNCC1
2. COc1cc(Nc2ncc3ccn(-c4cccc(NS(=O)(=O)C(C)(C)C)c4)c3n2)ccc1N1CCN(C)CC1
3. CC(C)(C)S(=O)(=O)Nc1cccc(-n2ccc3cnc(Nc4ccc(C(=O)NC5CCNCC5)c(F)c4)nc32)c1
4. Cc1cnc(Nc2ccc(OCCN3CCCC3)cc2)nc1Nc1cccc(NS(=O)(=O)C(C)(C)C)c1
5. CN(C)C1CCN(c2ccc(Nc3ncc4scc(-c5ccc(F)c(NS(=O)(=O)C(C)(C)C)c5)c4n3)cc2F)CC1
6. CC(C)(C)S(=O)(=O)Nc1cc(-n2ccc3cnc(Nc4ccc(N5CCNCC5)c(F)c4)nc32)ccc1F [drawing 428]
7. CC(C)(C)S(=O)(=O)Nc1cccc(-n2ccc3cnc(Nc4ccc(N5CCNCC5)cc4)nc32)c1 [drawing 283]

548
743
467
682
292
216
1580

For each listed entry, give its IC50.
1. CC(C)(C)S(=O)(=O)Nc1cccc(Nc2nc(NC3CCNCC3)nc3sccc23)c1 [drawing 203]
2. CN1CCC(NC(=O)c2ccc(Nc3ncc4ccn(-c5cccc(NS(=O)(=O)C(C)(C)C)c5)c4n3)cc2F)CC1
3. CN(C)C1CCN(c2ccc(Nc3ncc4scc(-c5ccc(F)c(NS(=O)(=O)C6(C)CC6)c5)c4n3)cc2F)CC1
4. CC(C)(C)S(=O)(=O)Nc1cc(-n2ccc3cnc(Nc4cc(F)c5c(c4)CC4CNCCN54)nc32)ccc1F (stereo not shown) [drawing 465]
5. O=S(=O)(Nc1cccc(-n2ccc3cnc(Nc4ccc(N5CCNCC5)cc4)nc32)c1)C1CC1 [drawing 296]
6. Cc1cnc(Nc2ccc(N3CCN(C)CC3)cc2)nc1Nc1cccc(NS(=O)(=O)C(C)(C)C)c1 [drawing 205]
7. CNC1CCN(c2ccc(Nc3ncc4scc(-c5ccc(F)c(NS(=O)(=O)C(C)(C)C)c5)c4n3)cc2F)CC1 [drawing 458]

1: 458; 2: 314; 3: 605; 4: 353; 5: 2960; 6: 373; 7: 670
